Tested on: Cell membrane
Assay: Induction of membrane damage in Escherichia coli assessed as disruption of membrane integrity at 10 uM incubated for 30 min by propidium iodide staining based assay
Activity calls are given as the source filed them. The rule behind the calls is not given here.

{"structure.smiles.string": "CC(C)C[C@H](NC(=O)[C@H](CCCNC(=N)N)NC(=O)CNC(=O)[C@H](CC(C)C)NC(=O)[C@@H](NC(=O)[C@@H](CCCCN)NC(=O)[C@@H](NC(=O)[C@H](CC(C)C)NC(=O)[C@H](CCCNC(=N)N)NC(=O)CNC(=O)[C@H](CC(C)C)NC(=O)[C@@H](NC(=O)[C@@H](N)CCCCN)C(C)C)C(C)C)C(C)C)C(=O)N[C@H](C(N)=O)C(C)C", "assay.target": "Cell membrane", "Activity": "Active"}
{"structure.smiles.string": "CC(C)C[C@H](NC(=O)[C@H](CCCNC(=N)N)NC(=O)CNC(=O)[C@H](CC(C)C)NC(=O)[C@@H](NC(=O)[C@@H](CCCCN)NC(=O)[C@@H](NC(=O)[C@H](CC(C)C)NC(=O)[C@H](CCCNC(=N)N)NC(=O)CNC(=O)[C@H](CC(C)C)NC(=O)[C@@H](NC(=O)[C@H](N)CCCCN)C(C)C)C(C)C)C(C)C)C(=O)N[C@H](C(N)=O)C(C)C", "assay.target": "Cell membrane", "Activity": "Active"}
{"structure.smiles.string": "CC(C)C[C@H](NC(=O)[C@H](CCCNC(=N)N)NC(=O)CNC(=O)[C@H](CC(C)C)NC(=O)[C@@H](NC(=O)[C@H](CCCCN)NC(=O)[C@@H](NC(=O)[C@H](CC(C)C)NC(=O)[C@H](CCCNC(=N)N)NC(=O)CNC(=O)[C@H](CC(C)C)NC(=O)[C@@H](NC(=O)[C@H](N)CCCCN)C(C)C)C(C)C)C(C)C)C(=O)N[C@H](C(N)=O)C(C)C", "assay.target": "Cell membrane", "Activity": "Active"}
{"structure.smiles.string": "CC(C)C[C@H](NC(=O)[C@H](CCCNC(=N)N)NC(=O)CNC(=O)[C@H](CC(C)C)NC(=O)[C@@H](NC(=O)[C@H](CCCCN)NC(=O)[C@@H](NC(=O)[C@H](CC(C)C)NC(=O)[C@H](CCCNC(=N)N)NC(=O)CNC(=O)[C@H](CC(C)C)NC(=O)[C@@H](NC(=O)[C@@H](N)CCCCN)C(C)C)C(C)C)C(C)C)C(=O)N[C@H](C(N)=O)C(C)C", "assay.target": "Cell membrane", "Activity": "Active"}

----------
System: Staphylococcus aureus
Assay: Antimicrobial activity against Staphylococcus aureus ATCC 25923 assessed as inhibition of bacterial growth by broth dilution method
Type: functional
Field: MIC. Provide a value for each of the molecules that follow.
Respond numerically; units are µM and should not be typed.

Input line: So what does the record say about MIC for CC(C)C[C@H](NC(=O)[C@H](CCCNC(=N)N)NC(=O)CNC(=O)[C@H](CC(C)C)NC(=O)[C@@H](NC(=O)[C@H](CCCCN)NC(=O)[C@@H](NC(=O)[C@H](CC(C)C)NC(=O)[C@H](CCCNC(=N)N)NC(=O)CNC(=O)[C@H](CC(C)C)NC(=O)[C@@H](NC(=O)[C@H](N)CCCCN)C(C)C)C(C)C)C(C)C)C(=O)N[C@H](C(N)=O)C(C)C ?
Output line: 2

Input line: Also CCn1cc(C(=O)O)c(=O)c2cc(F)c(N3CCNCC3)cc21 , if possible.
Output line: 1.22

Input line: Also CC(C)C[C@H](NC(=O)[C@H](CCCNC(=N)N)NC(=O)CNC(=O)[C@H](CC(C)C)NC(=O)[C@@H](NC(=O)[C@H](CCCCN)NC(=O)[C@@H](NC(=O)[C@H](CC(C)C)NC(=O)[C@H](CCCNC(=N)N)NC(=O)CNC(=O)[C@H](CC(C)C)NC(=O)[C@@H](NC(=O)[C@@H](N)CCCCN)C(C)C)C(C)C)C(C)C)C(=O)N[C@H](C(N)=O)C(C)C , if possible.
Output line: 2

Input line: Also CC(C)C[C@H](NC(=O)[C@H](CCCNC(=N)N)NC(=O)CNC(=O)[C@H](CC(C)C)NC(=O)[C@@H](NC(=O)[C@@H](CCCCN)NC(=O)[C@@H](NC(=O)[C@H](CC(C)C)NC(=O)[C@H](CCCNC(=N)N)NC(=O)CNC(=O)[C@H](CC(C)C)NC(=O)[C@@H](NC(=O)[C@H](N)CCCCN)C(C)C)C(C)C)C(C)C)C(=O)N[C@H](C(N)=O)C(C)C , if possible.
Output line: 2

Input line: Also CC(C)C[C@H](NC(=O)[C@H](CCCNC(=N)N)NC(=O)CNC(=O)[C@H](CC(C)C)NC(=O)[C@@H](NC(=O)[C@@H](CCCCN)NC(=O)[C@@H](NC(=O)[C@H](CC(C)C)NC(=O)[C@H](CCCNC(=N)N)NC(=O)CNC(=O)[C@H](CC(C)C)NC(=O)[C@@H](NC(=O)[C@@H](N)CCCCN)C(C)C)C(C)C)C(C)C)C(=O)N[C@H](C(N)=O)C(C)C , if possible.
Output line: 1

----------
System: Escherichia coli
Assay: Antibacterial activity against Escherichia coli ATCC 25922 in presence of temperature ranging from 4 to 90 degC measured after 1 hr
Format: functional
readout.name: MIC
Answer format: number, then unit.

Input line: So what does the record say about MIC for CC(C)C[C@H](NC(=O)[C@H](CCCNC(=N)N)NC(=O)CNC(=O)[C@H](CC(C)C)NC(=O)[C@@H](NC(=O)[C@@H](CCCCN)NC(=O)[C@@H](NC(=O)[C@H](CC(C)C)NC(=O)[C@H](CCCNC(=N)N)NC(=O)CNC(=O)[C@H](CC(C)C)NC(=O)[C@@H](NC(=O)[C@@H](N)CCCCN)C(C)C)C(C)C)C(C)C)C(=O)N[C@H](C(N)=O)C(C)C ?
Output line: 2 µM

----------
Test: Hemolytic activity in human RBC at 150 uM measured after 40 min by hemolysis assay relative to control
Format: ADME, tissue-based, Erythrocyte
Conditions: red blood cells (RBC), read-out: Activity
readout.name: hemolysis at 40 min, 150 µM (%)
Respond numerically; units are % and should not be typed.

Input line: So what does the record say about hemolysis at 40 min, 150 µM for CC(C)C[C@H](NC(=O)[C@H](CCCNC(=N)N)NC(=O)CNC(=O)[C@H](CC(C)C)NC(=O)[C@@H](NC(=O)[C@@H](CCCCN)NC(=O)[C@@H](NC(=O)[C@H](CC(C)C)NC(=O)[C@H](CCCNC(=N)N)NC(=O)CNC(=O)[C@H](CC(C)C)NC(=O)[C@@H](NC(=O)[C@@H](N)CCCCN)C(C)C)C(C)C)C(C)C)C(=O)N[C@H](C(N)=O)C(C)C ?
Output line: 0

----------
Assay: Retention time of the compound analysed by RP-HPLC analysis
Format: physicochemical
Where a SMILES comes first, the peptide text is derived from it.
Tag: 1 (yes) if measured Retention_time is not below 10 min, 0 (no) if it is.

Input line: Could you tell me if the measured Retention_time of CC(C)C[C@H](NC(=O)[C@H](CCCNC(=N)N)NC(=O)CNC(=O)[C@H](CC(C)C)NC(=O)[C@@H](NC(=O)[C@H](CCCCN)NC(=O)[C@@H](NC(=O)[C@H](CC(C)C)NC(=O)[C@H](CCCNC(=N)N)NC(=O)CNC(=O)[C@H](CC(C)C)NC(=O)[C@@H](NC(=O)[C@@H](N)CCCCN)C(C)C)C(C)C)C(C)C)C(=O)N[C@H](C(N)=O)C(C)C reaches 10 min or more?
Output line: 1 (yes)

Input line: Also CC(C)C[C@H](NC(=O)[C@H](CCCNC(=N)N)NC(=O)CNC(=O)[C@H](CC(C)C)NC(=O)[C@@H](NC(=O)[C@@H](CCCCN)NC(=O)[C@@H](NC(=O)[C@H](CC(C)C)NC(=O)[C@H](CCCNC(=N)N)NC(=O)CNC(=O)[C@H](CC(C)C)NC(=O)[C@@H](NC(=O)[C@H](N)CCCCN)C(C)C)C(C)C)C(C)C)C(=O)N[C@H](C(N)=O)C(C)C , if possible.
Output line: 1 (yes)

Input line: Also CC(C)C[C@H](NC(=O)[C@H](CCCNC(=N)N)NC(=O)CNC(=O)[C@H](CC(C)C)NC(=O)[C@@H](NC(=O)[C@H](CCCCN)NC(=O)[C@@H](NC(=O)[C@H](CC(C)C)NC(=O)[C@H](CCCNC(=N)N)NC(=O)CNC(=O)[C@H](CC(C)C)NC(=O)[C@@H](NC(=O)[C@H](N)CCCCN)C(C)C)C(C)C)C(C)C)C(=O)N[C@H](C(N)=O)C(C)C , if possible.
Output line: 1 (yes)

Input line: Also CC(C)C[C@H](NC(=O)[C@H](CCCNC(=N)N)NC(=O)CNC(=O)[C@H](CC(C)C)NC(=O)[C@@H](NC(=O)[C@@H](CCCCN)NC(=O)[C@@H](NC(=O)[C@H](CC(C)C)NC(=O)[C@H](CCCNC(=N)N)NC(=O)CNC(=O)[C@H](CC(C)C)NC(=O)[C@@H](NC(=O)[C@@H](N)CCCCN)C(C)C)C(C)C)C(C)C)C(=O)N[C@H](C(N)=O)C(C)C , if possible.
Output line: 1 (yes)

Input line: Also CC(C)C[C@H](NC(=O)[C@H](CCCNC(=N)N)NC(=O)CNC(=O)[C@H](CC(C)C)NC(=O)[C@@H](NC(=O)[C@@H](N)CCCCN)C(C)C)C(=O)N[C@H](C(N)=O)C(C)C (H-KVLGRLV-NH2) , if possible.
Output line: 0 (no)

Cited source for all entries: ChEMBL document CHEMBL5030557
